Test system: HS-5 cells
Method Description: CellTiter-Glo assay for human cells
Format: cell-based
Reported Conditions: HS5, HS-5, 24 h
Excerpt: HEK-293 and HS-5 cells were stored in liquid nitrogen, in freezing medium [50% Dulbecco’s Modified Eagle’s Medium (DMEM), 40% fetal bovine serum, and 10% DMSO] for long-term storage. For experimental use, the cells were thawed and then cultured using DMEM containing 10% […] and 1% penicillin/streptomycin. […]
Measured Attribute: EC50 (µM)
Express it in µM; write the number only.

Briefly, EC50 measured for c1ccc(-c2cccc(-c3ccccn3)n2)nc1 [2,2′:6′,2′′-terpyridine] : 28.7
